Data provenance: paper PMC1764434

# assay_name: Urinary excretion and renal clearance (24-hour urine collections, days 1-3)
# conditions_used: human, in vivo, po, 1500 mg
recorded_metric: CL renal (mL/min)

> print(dat)
                                   compound  recorded.metric  numeric.readout
1  CCN(CC)CCCC(C)Nc1ccnc2cc(Cl)ccc12 (stereo not shown)         CL renal              100

---

# assay_name: Blood pharmacokinetics after oral dosing (fluorescence HPLC, noncompartmental WinNonlin model)
# Assay type: in vivo, human
# conditions_used: human, in vivo, po, 600 mg, single oral 600 mg dose, whole blood, median (range); read-out: AUCw1 (partial AUC for week 1)
recorded_metric: AUC (µM·h)

> print(dat)
                                   compound  recorded.metric  numeric.readout
1  CCN(CC)CCCC(C)Nc1ccnc2cc(Cl)ccc12 (stereo not shown) [CQ, chloroquine]              AUC               90

---

# assay_name: Urinary excretion and renal clearance (24-hour urine collections, days 1-3)
# conditions_used: human, urine and whole blood, po, 1750 mg
recorded_metric: CL renal

> print(dat)
                    given.smiles  recorded.metric     result
1  CCN(CC)CCCNc1ccnc2cc(Cl)ccc12         CL renal  55 mL/min

---

# assay_name: Blood pharmacokinetics after oral dosing (fluorescence HPLC, noncompartmental WinNonlin model)
# Type: in vivo, human
# conditions_used: human, whole blood; single oral 600 mg dose, median (range)
recorded_metric: Vd/F (L)

> print(dat)
                    given.smiles  endpoint.unit  numeric.readout
1  CCN(CC)CCCNc1ccnc2cc(Cl)ccc12              L             6710

---

# assay_name: Blood pharmacokinetics after oral dosing (fluorescence HPLC, noncompartmental WinNonlin model)
# Type: in vivo, human
# conditions_used: human, whole blood; single oral 700 mg adjustment dose, median (range); read-out: MRT (converted)
recorded_metric: MRT (days)

> print(dat)
                    given.smiles  endpoint.unit  numeric.readout
1  CCN(CC)CCCNc1ccnc2cc(Cl)ccc12           days             23.5

---

# assay_name: Blood pharmacokinetics after oral dosing (fluorescence HPLC, noncompartmental WinNonlin model)
# Type: in vivo, human
# conditions_used: human, whole blood; after 600 mg oral dose of parent drug, median (range); read-out: MRT of metabolite (converted)
recorded_metric: MRT (days)

> print(dat)
                                   compound  recorded.metric  numeric.readout
1  CCNCCCC(C)Nc1ccnc2cc(Cl)ccc12 (centres unmarked) [MDCQ, mono-desethylchloroquine]              MRT             44.8
2         CCNCCCNc1ccnc2cc(Cl)ccc12 [AQ-72]              MRT             16.6

---

# assay_name: Blood pharmacokinetics after oral dosing (fluorescence HPLC, noncompartmental WinNonlin model)
# Format: in vivo, human
# conditions_used: human, whole blood, oral; after 700 mg AQ-13, median (range); read-out: MRT of metabolite (converted)
# Description: Study drugs were administered in the GCRC on an empty stomach between 8 and 9 AM the morning after admission (after fasting for ≥ 10 h).
recorded_metric: MRT (days)

> print(dat)
                            compound  numeric.readout
1  CCNCCCNc1ccnc2cc(Cl)ccc12 [AQ-72]             18.6

---

# assay_name: Blood pharmacokinetics after oral dosing (fluorescence HPLC, noncompartmental WinNonlin model)
# Assay type: in vivo, human
# conditions_used: human, whole blood, 1750 mg; 1,750 mg oral over 3 d, median (range); read-out: MRT (converted)
recorded_metric: MRT (days)

> print(dat)
                    given.smiles  endpoint.unit  numeric.readout
1  CCN(CC)CCCNc1ccnc2cc(Cl)ccc12           days             13.4

---

# assay_name: Blood pharmacokinetics after oral dosing (fluorescence HPLC, noncompartmental WinNonlin model)
# Format: in vivo, human
# conditions_used: human, whole blood; after 600 mg oral dose of parent drug, median; read-out: Cmax of metabolite
recorded_metric: Cmax (nM)

> print(dat)
                                   compound  endpoint.unit  numeric.readout
1                 CCNCCCNc1ccnc2cc(Cl)ccc12             nM              590
2  CCNCCCC(C)Nc1ccnc2cc(Cl)ccc12 (centres unmarked)             nM              540

---

# assay_name: Blood pharmacokinetics after oral dosing (fluorescence HPLC, noncompartmental WinNonlin model)
# Type: in vivo, human
# conditions_used: human, whole blood, oral, 1500 mg; after 1,500 mg CQ over 3 d, median (range); read-out: t1/2 of metabolite (converted)
recorded_metric: half-life (days)

> print(dat)
                                   compound  numeric.readout
1  CCNCCCC(C)Nc1ccnc2cc(Cl)ccc12 (stereo not shown) [MDCQ, mono-desethylchloroquine]             21.8

---

# assay_name: Blood pharmacokinetics after oral dosing (fluorescence HPLC, noncompartmental WinNonlin model)
# Assay type: in vivo, human
# conditions_used: human, in vivo; single oral 600 mg dose, whole blood, median (range); read-out: Tmax
recorded_metric: Tmax (h)

> print(dat)
                                   molecule  endpoint.unit  numeric.readout
1  CCN(CC)CCCC(C)Nc1ccnc2cc(Cl)ccc12 (stereo not shown)              h                3

---

# assay_name: Blood pharmacokinetics after oral dosing (fluorescence HPLC, noncompartmental WinNonlin model)
# Format: in vivo, human
# conditions_used: human, in vivo, po, 1500 mg, 1,500 mg oral over 3 d, median (range); read-out: AUCw1
# Experimental: Study drugs were administered in the GCRC on an empty stomach between 8 and 9 AM the morning after admission (after fasting for ≥ 10 h).
recorded_metric: AUC (µM·h)

> print(dat)
                                   compound  recorded.metric  endpoint.unit  numeric.readout
1  CCN(CC)CCCC(C)Nc1ccnc2cc(Cl)ccc12 (stereo not shown)              AUC           µM·h              312

---

# assay_name: Blood pharmacokinetics after oral dosing (fluorescence HPLC, noncompartmental WinNonlin model)
# Assay type: in vivo, human
# conditions_used: human, in vivo, 1500 mg; 1,500 mg oral over 3 d, median (range)
recorded_metric: Vd/F (L)

> print(dat)
                                   molecule  numeric.readout
1  CCN(CC)CCCC(C)Nc1ccnc2cc(Cl)ccc12 (stereo not shown) [CQ, chloroquine]             3720

---

# assay_name: Blood pharmacokinetics after oral dosing (fluorescence HPLC, noncompartmental WinNonlin model)
# Type: in vivo, human
# conditions_used: human; single oral 600 mg dose (CQ base equivalent), whole blood, median (range); read-out: Cmax
recorded_metric: Cmax (nM)

> print(dat)
                    given.smiles  endpoint.unit  numeric.readout
1  CCN(CC)CCCNc1ccnc2cc(Cl)ccc12             nM             1400

---

# assay_name: Blood pharmacokinetics after oral dosing (fluorescence HPLC, noncompartmental WinNonlin model)
# Assay type: in vivo, human
# conditions_used: human, whole blood, po, 700 mg, single oral 700 mg adjustment dose, median (range); read-out: AUCτ
recorded_metric: AUC (µM·h)

> print(dat)
                    given.smiles  recorded.metric  numeric.readout
1  CCN(CC)CCCNc1ccnc2cc(Cl)ccc12              AUC              342

---

# assay_name: Blood pharmacokinetics after oral dosing (fluorescence HPLC, noncompartmental WinNonlin model)
# Format: in vivo, human
# conditions_used: human, whole blood, 1750 mg; 1,750 mg oral over 3 d, median (range); read-out: Tmax
# Description: Study drugs were administered in the GCRC on an empty stomach between 8 and 9 AM the morning after admission (after fasting for ≥ 10 h).
recorded_metric: Tmax (h)

> print(dat)
                                molecule  recorded.metric  numeric.readout
1  CCN(CC)CCCNc1ccnc2cc(Cl)ccc12 [AQ-13]             Tmax             27.4

---

# assay_name: Blood pharmacokinetics after oral dosing (fluorescence HPLC, noncompartmental WinNonlin model)
# Format: in vivo, human
# conditions_used: human, whole blood, oral, 1500 mg; after 1,500 mg CQ over 3 d, median (range); read-out: AUCτ of metabolite
recorded_metric: AUC (µM·h)

> print(dat)
                                   compound  numeric.readout
1  CCNCCCC(C)Nc1ccnc2cc(Cl)ccc12 (stereo not shown) [MDCQ, mono-desethylchloroquine]              330
